Origin of measurements: PubChem BioAssay (NCATS)

system: ECU; assay: qHTS profiling for inhibitors of Plasmodium falciparum proliferation (AID 504749); also: nearly all actives have a fitted effect of over 60% in size; also: potency is read from the fitted curve at half-maximal effect; details: P. falciparum in erythrocytes, SYBR Green DNA, 72 h; series mostly up to 28.7 µM
Inconclusive results are not listed. Calls of active or inactive are those of the source. Calls follow the shape of the dose curve; as a rule, active = well fitted inhibition curve with a large enough effect; inconclusive = small, poorly fitted or top-dose-only effect; inactive = flat fitted curve, though single readings scatter.
property: Potency

1. c1ccc(CNCCNCc2ccccc2)cc1 ... 11.2 µM (active)
2. O=C(OCCOCCO)c1ccccc1Nc1cccc(C(F)(F)F)c1 ... inactive
3. CCCCN1CCCC1C(=O)Nc1c(C)cc(C)cc1C (centres undefined) ... inactive
4. CCOC(=O)OC(C)OC1=C(C(=O)Nc2ccccn2)N(C)S(=O)(=O)c2ccccc21 (centres undefined) ... inactive
5. CC(C)COC(=O)OCN1C(=O)CN(CCN2CC(=O)N(COC(=O)OCC(C)C)C(=O)C2)CC1=O ... inactive
6. CCCCOc1ccc(C(=O)CCN2CCCCC2)cc1 ... inactive
7. COc1ccc(/C=C/C(=O)c2ccc(OC)cc2OC)cc1 ... 8.91 µM (active)
8. CC(O)C(=O)O (centres undefined) ... inactive
9. CN(C(=O)CN(CCO)CC(=O)N(C)C(C)(C)Cc1ccccc1)C(C)(C)Cc1ccccc1 ... inactive
10. O=C1CCC(c2ccc(-n3ccnc3)cc2)=NN1 ... inactive
11. C[C@@H]1C(=O)NC2=Nc3cccc(Cl)c3CN21 ... inactive
12. C[C@@H]1C[C@H]2[C@@H]3CCC4=CC(=O)C=C[C@]4(C)[C@@]3(F)[C@@H](O)C[C@]2(C)[C@H]1C(=O)CO ... inactive
13. C[C@H](O)C(=O)Nc1c(I)c(C(=O)NC(CO)CO)c(I)c(C(=O)NC(CO)CO)c1I ... inactive
14. CCCn1c(=O)[nH]c(=O)c2[nH]cnc21 ... inactive
15. O=C(O)CCCCC(=O)O ... inactive
16. CC(=O)Oc1ccc(C(=C2CCCCC2)c2ccc(OC(C)=O)cc2)cc1 ... inactive
17. CCC(=O)c1c(O)cc(O)cc1O ... inactive
18. CCN(CC)C(=O)N1CCN(C)CC1 ... inactive
19. COc1cccc2c1C(=O)c1c(O)c3c(c(O)c1C2=O)C[C@@](O)(C(C)=O)C[C@@H]3O[C@H]1C[C@H](N)[C@H](O)[C@H](C)O1 ... 8.91 µM (active)
20. Oc1c(I)cc(I)c2cccnc12 ... inactive
21. CN1CCN(C(c2ccccc2)c2ccccc2)CC1 ... inactive
22. CN(C)C(=S)SC(=S)N(C)C ... 1.12 µM (active)
23. CCC(C(=O)OCCN(CC)CC)c1ccccc1 (centres undefined) ... inactive
24. O=C(CCCN1CCC(O)(c2ccc(Br)cc2)CC1)c1ccc(F)cc1 ... inactive
25. CC(C)(C)CC(C)(C)c1ccc(OCCOCC[N+](C)(C)Cc2ccccc2)cc1 ... 5.01 µM (active)
26. Cc1c(F)c(N2CCNC(C)C2)cc2c1c(=O)c(C(=O)O)cn2C1CC1 (centres undefined) ... inactive
27. Cc1cccn2c(=O)c(-c3nnn[nH]3)cnc12 ... inactive
28. CN(C)/N=N/c1nc[nH]c1C(N)=O ... inactive
29. N[C@H](CO)C(=O)O ... inactive
30. CCCCCCC[N+](CC)(CC)CCCCc1ccc(Cl)cc1 ... 1.58 µM (active)
31. CC1=C(C(=O)OC(C)C)C(c2cccc([N+](=O)[O-])c2)C(C(=O)OC2CN(C(c3ccccc3)c3ccccc3)C2)=C(N)N1 (centres undefined) ... 7.08 µM (active)
32. COc1cc2c(cc1OC)C(C(C(=O)N(CCc1ccc(OC)c(OC)c1OC)CCc1ccc(OC)c(OC)c1OC)c1ccccc1)=NCC2 (centres undefined) ... 2.24 µM (active)
33. CC(C)(CO)[C@@H](O)C(=O)NCCCO ... inactive
34. CCN1CCC[C@H]1CNC(=O)c1c(OC)ccc(Br)c1OC ... inactive
35. N[C@H](Cc1c[nH]c2ccccc12)C(=O)O ... inactive
36. CCCCCC=CCC=CCCCCCCCC(=O)OCC ... inactive
37. O=C1[C@H]2CCCC[C@H]2C(=O)N1CCCCN1CCN(c2nsc3ccccc23)CC1 ... inactive
38. O=C(CCN1CCC(c2ccccc2)C1)c1ccc2c(c1)OCCO2 (centres undefined) ... inactive
39. Nc1ccc(C(=O)O)cc1 ... inactive
